# assayed-target: Mitogen-activated protein kinase kinase kinase 2 (Homo sapiens) (UniProt Q9Y2U5)
# assay-details: modulators of MEK5 binding to wildtype MEKK2, primary screen, biochemical, multiplex bead flow cytometry, Alexa488-MEK5 (AID 1531)
# condition-summary: Alexa488-MEK5 binding to MEKK2 WT, at 10 µM, actives lie on both sides
The campaign covered roughly 290,000 compounds. About 3,300 (1.1%) were called active. For the sample, actives were picked, then their nearest neighbours and some compounds at random.
readout-name: binding response (% of control)

{"compound": "Cc1cc(C)cc(C(=O)NCCN2CCOCC2)c1", "value-measured": "109% (inactive)"}
{"compound": "CCCC1=Nc2cc(C(=O)NCCN3CCCC3)ccc2Sc2ccccc21", "value-measured": "142% (active)"}
{"compound": "Cc1ccc(N(CCC(=O)O)S(=O)(=O)c2cccc(C(F)(F)F)c2)cc1", "value-measured": "4% [inhibitor] (active)"}
{"compound": "Cc1ccc(C(CNC(=O)Nc2cccc(C)c2)N2CCN(C)CC2)cc1 (stereo not given)", "value-measured": "104% (inactive)"}
{"compound": "COc1ccc(CCNC(=O)C2CCCN(S(=O)(=O)c3ccc(OC)cc3)C2)cc1 (stereo not given)", "value-measured": "94% (inactive)"}
{"compound": "CCc1nnc(NC(=O)CCN(c2ccc(C)cc2)S(=O)(=O)c2ccccc2)s1", "value-measured": "108% (inactive)"}

The compound CCC1=Nc2cc(C(=O)NCCN3CCCC3)ccc2Sc2ccc(C)cc21 showed binding response (% of control) equal to 155% (active)

The compound CCC1=Nc2cc(C(=O)NCCCN3CCOCC3)ccc2Sc2ccc(Br)cc21 showed binding response (% of control) equal to 108% (inactive)

The compound O=C(O)c1cc(S(=O)(=O)N(Cc2ccccc2)c2cccc(C(F)(F)F)c2)ccc1Cl showed binding response (% of control) equal to 108% (inactive)

The compound Cc1ccccc1N(C(=O)CNC(=O)c1cccs1)C(C(=O)NC1CCCC1)c1ccncc1 (stereo not given) showed binding response (% of control) equal to 98% (inactive)

====

# assayed-target: Mitogen-activated protein kinase kinase kinase 2 (Homo sapiens) (UniProt Q9Y2U5)
# assay-details: modulators of MEK5 binding to wildtype MEKK2, primary screen, biochemical, multiplex bead flow cytometry, Alexa488-MEK5 (AID 1531)
# condition-summary: Alexa488-MEK5 binding to MEKK2 WT, at 10 µM, actives lie on both sides
Among all 290,000 compounds or so, about 3,300 (1.1%) were called active. Rule as the data show it: active = binding response below about 67% or above about 130%; inconclusive = no clear call, values can overlap the other calls; inactive = in between. For the sample, actives were picked, then their nearest neighbours and some compounds at random.
Allowed answers: active, inactive

Q: For Cc1c(C)n(Cc2ccc(Cl)cc2)c2ccc(C(=O)NCCCN3CCOCC3)cc12 , what call appears in the results of this test?
Ans: active

====

Attribute: binding response (% of control)
# assayed-target: Mitogen-activated protein kinase kinase kinase 2 (Homo sapiens)
# assay-details: modulators of MEK5 binding to wildtype MEKK2, primary screen, biochemical, multiplex bead flow cytometry, Alexa488-MEK5 (AID 1531)
# condition-summary: Alexa488-MEK5 binding to MEKK2 WT, at 10 µM, actives lie on both sides
The whole screen tested about 290,000 compounds, of which about 3,300 (1.1%) were called active. This excerpt belongs to a sample that is enriched for actives.

{"structure-string": "CCOC(=O)Cc1csc(NC(=O)CSc2nc(C)cc(=O)[nH]2)n1", "binding response (% of control)": "61% [inhibitor] (active)"}
{"structure-string": "O=C(NC1CCN(Cc2ccccc2)CC1)c1c(F)cccc1F", "binding response (% of control)": "113% (inactive)"}
{"structure-string": "O=C(NC1CCN(Cc2ccccc2)CC1)c1ccc(Oc2cc(Cl)cc(Cl)c2)o1", "binding response (% of control)": "142% (active)"}
{"structure-string": "O=C(NC1CCN(Cc2ccccc2)CC1)c1cc(Br)c(Br)[nH]1", "binding response (% of control)": "140% (active)"}
{"structure-string": "C=CCNc1nc(N)c([N+](=O)[O-])c(NC2CCCCC2)n1", "binding response (% of control)": "100% (inactive)"}
{"structure-string": "O=C1CC2(CCCC2)Oc2ccc(Cl)cc21", "binding response (% of control)": "109% (inactive)"}

The compound CCOc1ccc(CC(=O)NC2CCN(Cc3ccccc3)CC2)cc1 showed binding response (% of control) equal to 108% (inactive)

The compound Cc1cc(C(=O)NC2CCN(Cc3ccccc3)CC2)n[nH]1 showed binding response (% of control) equal to 98% (inactive)

The compound CCOC(=O)Cc1csc(NC(=O)CSc2ccc(Br)cc2)n1 showed binding response (% of control) equal to 109% (inactive)

The compound CCCCc1nnc(NC(=O)CSc2nc(C)cc(=O)[nH]2)s1 showed binding response (% of control) equal to 99% (inactive)

The compound CCn1c(=N)n(CC(=O)c2cccc(OC)c2)c2ccccc21 showed binding response (% of control) equal to 96% (inactive)
